The entries below come with measured pIC50 values attached.
- experimental_target: KRAS-G12V (Homo sapiens, UniProt P01116, G12V)
- Sequence (P01116 with tags, fused parts or gaps isoform P01116-2 G12V): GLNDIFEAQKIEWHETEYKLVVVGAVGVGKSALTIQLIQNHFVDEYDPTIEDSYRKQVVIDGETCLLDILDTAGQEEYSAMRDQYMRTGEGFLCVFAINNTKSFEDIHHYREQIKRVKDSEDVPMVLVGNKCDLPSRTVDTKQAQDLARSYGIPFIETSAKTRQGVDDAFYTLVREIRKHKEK
- assay_overview: SOS-catalyzed nucleotide exchange assay (Procedure A, TR-FRET), KRAS-G12V
- Assay type: biochemical
- settings: nucleotide exchange, read-out: KRAS G12V GNE IC50
pIC50: −log10 of the molar value.

compound: CC1CCc2cccc(-c3nccc4c3sc3nc(OC[C@@]56CCCN5C[C@H](F)C6)nc(N5CCOC[C@@](C)(O)C5)c34)c21 (single isomer, unassigned)
pIC50: 7.02
//
compound: Cc1cc2[nH]ncc2c(-c2nccc3c2sc2nc(OC[C@@]45CCCN4C[C@H](F)C5)nc(N4CCOC[C@@](C)(O)C4)c23)c1C1(C)CC1
pIC50: 7.66
//
compound: C[C@@]1(O)COCCN(c2nc(OC[C@]3(CN4C[C@H]5C[C@@H]4CO5)CC3(F)F)nc3sc4c(-c5c(C6(F)CC6)c(Cl)cc6[nH]ncc56)nccc4c23)C1
pIC50: 7.54
//
compound: Cc1cc2[nH]ncc2c(-c2nccc3c4c(N5CC6CCC(F)(C5)N6)nc(OC[C@@]56CCCN5C[C@H](F)C6)nc4n(C)c23)c1C(F)(F)F (single isomer, unassigned)
pIC50: 6.39
//
compound: C[C@@]1(O)COCCN(c2nc(OC[C@@]34CCCN3C[C@H](F)C4)nc3sc4c(-c5c(C6(F)CC6)c(F)cc6[nH]ncc56)nccc4c23)C1
pIC50: 7.33
//
compound: CC1(O)COCCN(c2nc(OCC34CCCN3CC(F)C4)nc3sc4c(-c5c(C6CC6)c(F)cc6[nH]ncc56)nccc4c23)C1 (centres unmarked)
pIC50: 7.26
//
compound: CN1CCc2cc3[nH]ncc3c(-c3nccc4c3sc3nc(OC[C@@]56CCCN5C[C@H](F)C6)nc(N5CCOC[C@@](C)(O)C5)c34)c21
pIC50: 7.03
//
compound: C[C@@]1(O)COCCN(c2nc(OC[C@]34C[C@@H](F)CN3CC3(CC3)C4)nc3sc4c(-c5c(C6CC6)c(Cl)cc6[nH]ncc56)nccc4c23)C1
pIC50: 7.15
//
compound: C[C@@]1(O)COCCN(c2nc(OC[C@@]34CCCN3C[C@H](F)C4)nc3sc4c(-c5c(-c6ccco6)c(C(F)(F)F)cc6[nH]ncc56)nccc4c23)C1
pIC50: 7.07
//
compound: Cc1cc2[nH]ncc2c(-c2nccc3c2sc2nc(OC[C@@]45CCCN4C[C@H](F)C5)nc(N4CCOC[C@@](C)(O)C4)c23)c1C(F)F
pIC50: 7.07
//
compound: COc1cc2c(sc3nc(OC[C@@]45CCCN4C[C@H](F)C5)nc(N4CCOC[C@@](C)(O)C4)c32)c(-c2c(C(F)(F)F)c(C)cc3[nH]ncc23)n1
pIC50: 6.66
//
compound: Cc1cc2[nH]ncc2c(-c2nccc3c2sc2nc(OC[C@@]45CCCN4C[C@H](F)C5)nc(N4CCOC[C@@](C)(O)C4)c23)c1C#N
pIC50: 6.36
//
compound: C[C@@]1(O)COCCN(c2nc(OC[C@@]34CCCN3C[C@H](F)C4)nc3sc4c(-c5ccc(F)c6sc(N)c(C#N)c56)cncc4c23)C1
pIC50: 6.40
//
compound: Cc1cc2[nH]ncc2c(-c2nccc3c2sc2nc(OC[C@@]45CCCN4C[C@H](F)C5)nc(N4CCOC[C@@](C)(O)C4)c23)c1Cl
pIC50: 6.67
//
compound: C[C@@]1(O)COCCN(c2nc(OC[C@@]34CCCN3C[C@H](F)C4)nc3sc4c(-c5c6ccccc6cc6[nH]ncc56)nccc4c23)C1
pIC50: 7.48
//
compound: C[C@@]1(O)COCCN(c2nc(OC[C@@]34CCCN3C[C@H](F)C4)nc3sc4c(-c5c(C(F)F)ccc6[nH]ncc56)nccc4c23)C1
pIC50: 6.06
//
compound: Cc1cc2[nH]ncc2c(-c2nccc3c2sc2nc(OC[C@@]45CCCN4C[C@H](F)C5)nc(N4CCOC[C@@](C)(O)C4)c23)c1-c1ccsc1
pIC50: 6.89
//
compound: Cc1cc2[nH]ncc2c(-c2nc(-c3ccoc3)cc3c2sc2nc(OC[C@@]45CCCN4C[C@H](F)C5)nc(N4CCOC[C@@](C)(O)C4)c23)c1C(F)(F)F
pIC50: 6.85
//
compound: C=C1CN2C[C@@H](OC)C[C@@]2(COc2nc(N3CCOC[C@@](C)(O)C3)c3c(n2)sc2c(-c4c(C5CC5)c(Cl)cc5[nH]ncc45)nccc23)C1
pIC50: 7.66
//
compound: C[C@@]1(O)COCCN(c2nc(OC[C@]3(CN4C[C@H]5CCO[C@H]5C4)CC3(F)F)nc3sc4c(-c5c(C6(F)CC6)c(Cl)cc6[nH]ncc56)nccc4c23)C1
pIC50: 7.04
//
compound: C[C@@]1(O)COCCN(c2nc(OC[C@@]34CCCN3C[C@H](F)C4)nc3sc4c(-c5c(C6(F)CC6)c(Cl)cc6[nH]ncc56)nccc4c23)C1
pIC50: 7.89
//
compound: CCC1(O)COCCN(c2nc(OC[C@@]34CCCN3C[C@H](F)C4)nc3sc4c(-c5c(C(F)(F)F)c(C)cc6[nH]ncc56)nccc4c23)C1 (some centres unmarked)
pIC50: 6.69
//
compound: C#Cc1c(F)ccc2cc3[nH]ncc3c(-c3nccc4c3sc3nc(OC[C@@]56CCCN5C[C@H](F)C6)nc(N5CCOC[C@@](C)(O)C5)c34)c12
pIC50: 8.28
